assay: logP determination via retention times, calibrated with unbranched alkan-2-ones; type: physicochemical; conditions: HPLC on reversed-phase C18, method *: 40° C., 0.1% aqueous formic acid and acetonitrile, linear gradient 10% to 95% acetonitrile
Marks after values point to notes of the source that are not given here.
Recorded Endpoint: logP

Here are 2 compounds together with their reported answers.
CC(=O)N(C)c1ccc(Nc2ncc(Cl)c(NCC3CC3)n2)cc1 [compound 671] : 1.58*
N#Cc1cc(Nc2ncc(Cl)c(NC3CC3)n2)c(F)cc1Cl [compound 936] : 3.33*

Please give logP, item by item, for the list that follows.
1. CC(C)(C)Sc1ccc(Nc2ncc(Cl)c(NC3CC3)n2)cc1 [compound 152]
2. CC(C)c1ccccc1Nc1ncc(Cl)c(NC2CC2)n1 [compound 872]
3. CNS(=O)(=O)Cc1ccc(Nc2ncc(Br)c(NC3CC3)n2)cc1 [compound 757]
4. C=CCOc1cccc(Nc2ncc(Cl)c(NC3CC3)n2)c1 [compound 715]
5. FC(F)C(F)(F)Oc1ccc(Nc2ncc(Cl)c(NC3CC3)n2)cc1 [compound 108]
6. CCOC(=O)Nc1ccc(Nc2ncc(Br)c(NC3CC3)n2)cc1O [compound 728]
7. C#CCS(=O)(=O)c1ccc(Nc2ncc(Cl)c(NC3CC3)n2)cc1 [compound 161]
8. CS(=O)(=O)c1ccc(Nc2ncc(Cl)c(NCC3CC3)n2)cc1 [compound 670]

Reply:
["3.73*", "1.96*", "1.51*", "2.37*", "2.65*", "1.53*", "2.21*", "1.97*"]

Please give logP, item by item, for the list that follows.
1. CC(=O)Nc1cc(Nc2ncc(Br)c(NC3CC3)n2)ccc1C [compound 113]
2. CCCCc1ccccc1Nc1ncc(Cl)c(NC2CC2)n1 [compound 911]

Reply:
["1.35*", "2.3*"]
